Target protein (sequence): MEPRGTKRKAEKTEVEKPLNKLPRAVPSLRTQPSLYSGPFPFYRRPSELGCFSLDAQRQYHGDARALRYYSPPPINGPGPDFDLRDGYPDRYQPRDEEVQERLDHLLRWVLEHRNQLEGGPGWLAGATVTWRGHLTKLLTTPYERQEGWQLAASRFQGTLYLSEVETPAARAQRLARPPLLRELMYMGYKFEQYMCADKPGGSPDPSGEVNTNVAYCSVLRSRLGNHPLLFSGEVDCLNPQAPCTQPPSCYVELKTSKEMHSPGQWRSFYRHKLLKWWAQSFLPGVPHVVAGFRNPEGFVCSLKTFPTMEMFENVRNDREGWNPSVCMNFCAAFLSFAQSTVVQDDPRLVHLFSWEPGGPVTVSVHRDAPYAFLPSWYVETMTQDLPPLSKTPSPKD
Measured Parameter: Kd

IN: May I ask what Kd has been recorded for Nc1ncnc2c1ncn2[C@@H]1O[C@H](COP(=O)(O)O)[C@@H](OP(=O)(O)O)[C@H]1O [pAp, adenosine 3’,5’-bisphosphate] ?
OUT: 20 to 30 mM
